Tested on: DMS 273 small cell lung
Experiment: NCI tumour cell line growth inhibition, 48 h
Measured endpoint: TGI

Quick batch: TGI for everything below.
1. N#C/C(=C\c1ccc(O)c(O)c1)C(N)=O
2. COC(=O)C(=C/c1ccc(OC)cc1)/C(C(=O)O)=C(/C)c1ccccc1
3. N#CC(/C(=N/NC(=O)C(=O)NN)C(=O)NC12CC3CC(CC(C3)C1)C2)c1ccccc1 (centres undefined)
4. O=c1cc(-c2ccccc2)[nH]c2cc3c(cc12)OCO3
5. CCOC(=O)[C@H](CCCNC(=O)OC(C)(C)C)NCc1ccc(OC)c(OC)c1

> 100 µM
> 100 µM
> 100 µM
84.9 µM
> 100 µM

Quick batch: TGI for everything below.
1. CC(=O)OCC1OC(Nc2ncc(-c3ccc(C)cc3)s2)C(OC(C)=O)C(OC(C)=O)C1OC(C)=O (centres undefined)
2. CCOC(=O)c1[nH]c(COC(C)=O)c(CCCOC(C)=O)c1CCCOC(C)=O
3. CCOC(=O)CCc1c(C)c2c(OC(C)=O)cc(OC(C)=O)cc2oc1=O
4. CC(=O)OCC1OC([S-])C(OC(C)=O)C(OC(C)=O)C1OC(C)=O.CC[PH+](CC)CC.CC[PH+](CC)CC.[Au].[Au] (centres undefined)
5. CCCCN1C=CN2c3nc4cc(C)c(C)cc4n3C(C(=O)OC)=C(C(=O)OC)C12 (centres undefined)

> 100 µM
> 100 µM
> 100 µM
2.11 µM
> 100 µM

Quick batch: TGI for everything below.
1. Cc1ccc2c(c1CCCC(C)(C)O)C(=O)C(=O)C(C(C)C)=C2O
2. CCCCCC(C[N+]1(C)CCOCC1)C(=O)/C=C/c1ccccc1 (centres undefined)
3. C=CCn1c(=O)n(CC=C)c(=O)n(CC=C)c1=O

1. > 100 µM
2. 11.7 µM
3. > 100 µM

// TGI value for `COC(=O)c1ccc(/C=C2\N=C(C)OC2=O)cc1` : > 100 µM

----------
Test system: BT-549 breast
Test: NCI tumour cell line growth inhibition, 48 h
Measured endpoint: TGI

Quick batch: TGI for everything below.
1. COc1ccc(CNc2c3ccccc3nc3ccccc23)cc1OC
2. COc1ccccc1/C=C/c1cnccn1

1: 12.2 µM; 2: > 10 µM

Quick batch: TGI for everything below.
1. Nc1ccncc1/C=C1/C(=O)Nc2ccccc21
2. NC(CCC(=O)NC(CSC(=O)N(O)c1ccc(Br)cc1)C(=O)NCC(=O)O)C(=O)O (stereo unspecified)
3. C=CCN1C[C@H](C)N([C@H](c2ccc(C(=O)N(CC)CCO)cc2)c2cccc(OC)c2)C[C@H]1C
4. CN(C)c1ccc2nc3ccc(=O)cc-3sc2c1

["> 100 µM", "> 50 µM", "> 100 µM", "> 100 µM"]

----------
Provide the reported TGI of each item.
Tested on: SK-MEL-5 melanoma
Assay: NCI tumour cell line growth inhibition, 48 h

// below: answered compounds
{"columns": ["Compound", "Experimental result"],
 "data": [
  ["Cc1cccc2c1Oc1cc(Cl)ccc1C2NC(=O)CCN1CCOCC1 (stereo unspecified)", "> 100 µM"],
  ["CCOC(=O)C1=C(Nc2cccc(OC)c2)OCC1=O", "> 100 µM"],
  ["CC1(C#N)CC(C)(C)C(/C=C2/CC(C)(C)C(/C=C3/OC(=N)CC3(C)C)=N2)=N1 (stereo unspecified)", "32.4 µM"],
  ["N#Cc1sc2nc(/C=C3/C=CC=CC3=O)c(O)n2c1N", "> 100 µM"],
  ["O=C(O)c1nc(-c2ccccn2)c(-c2ccccn2)nc1C(=O)O", "8.53 µM"]
]}

Query compound follows.
// TGI value for Nc1nc(Br)nc2c1ncn2C1CC(O)C(CO)O1 (stereo unspecified) : > 100 µM

----------
Tested on: COLO 205 colon
# valid calls are active, inactive; nothing else

I would be grateful if you could indicate the recorded call for O=C(O)c1cc(O)c2c(c1)C(C1c3cc(C(=O)O)cc(O)c3C(=O)c3c(OC4OC(CO)C(O)C(O)C4O)cccc31)c1cccc(OC3OC(CO)C(O)C(O)C3O)c1C2=O (centres undefined) .
inactive

I would be grateful if you could indicate the recorded call for `CC(=O)Oc1ccccc1C(=O)N=C1[Se]CCN1C(=O)c1ccccc1OC(C)=O` .
inactive

I would be grateful if you could indicate the recorded call for COC(=O)[C@@H](NC(=O)[C@@H](OC)[C@@H]1Cc2cc3cc(OC4CC(OC5CC(O)C(O)C(C)O5)C(O)C(C)O4)c(C)c(O)c3c(O)c2C(=O)[C@H]1OC1CC(OC2CC(OC3CC(C)(O)C(O)C(C)O3)C(O)C(C)O2)C(O)C(C)O1)C(C)C (some centres undefined) .
active

----------
Test system: OVCAR-3 ovarian
Assay: NCI tumour cell line growth inhibition, 48 h; in the data active = GI50 below about 0.43 µM; inactive = the rest
# valid calls are active, inactive; nothing else

// below: answered molecules
{"columns": ["Molecule", "Subject of test", "Cat"],
 "data": [
  ["O=C(CN(C1CCCCC1)C1CCCCC1)Nc1ccc(S(=O)(=O)c2ccc(NC(=O)CN(C3CCCCC3)C3CCCCC3)cc2)cc1", "OVCAR-3 ovarian", "active"],
  ["Cc1cn2c(/C=C3/C(=O)Nc4ccccc43)c(-c3ccc(Cl)cc3)nc2s1", "OVCAR-3 ovarian", "inactive"],
  ["COc1cc(/C=C2\\C(=O)Nc3ccc(F)cc32)cc(OC)c1OC", "OVCAR-3 ovarian", "inactive"],
  ["Cc1cc(NC(=O)c2ccc(C)c(Nc3nccc(-c4cccnc4)n3)c2)cc(-n2cnc(C)c2)c1", "OVCAR-3 ovarian", "inactive"],
  ["Cc1[nH][nH]c(=O)c1C=Nc1ccc(-c2nc3ccccc3[nH]2)cc1", "OVCAR-3 ovarian", "inactive"],
  ["O=C(Nc1cccc(Cl)c1Cl)c1cccc(NC2=C(Cl)C(=O)N(Cc3ccccc3)C2=O)c1", "OVCAR-3 ovarian", "inactive"],
  ["COc1ccc(CNc2c3ccccc3nc3ccccc23)cc1OC", "OVCAR-3 ovarian", "inactive"],
  ["Cc1c(C2Nc3ccccc3C2C)[nH]c2ccccc12 (stereo unspecified)", "OVCAR-3 ovarian", "inactive"]
]}

I would be grateful if you could indicate the recorded call for `C#CC(=O)Nc1cccc(Nc2nc3c(c(NCc4ccccc4)n2)CCCC3)c1` .
active

I would be grateful if you could indicate the recorded call for `O=C(Nc1cccc(Cl)c1)c1cc2ccccc2cc1O` .
inactive

I would be grateful if you could indicate the recorded call for COc1cc(NC(C)CCCN)c2nccc(C)c2c1OC (stereo unspecified) .
inactive

----------
System: CAKI-1 renal
Assay: NCI tumour cell line growth inhibition, 48 h
Measured endpoint: TGI

{"columns": ["Compound", "TGI"],
 "data": [
  ["Cc1ccc2c(c1CCCC(C)(C)O)C(=O)C(=O)C(C(C)C)=C2O", "> 100 µM"],
  ["COc1ccc2c3c1O[C@H]1C(O)CCC4(O)[C@@H](C2)NCC[C@]314 (stereo not given in full)", "> 100 µM"],
  ["CCCCCCCCCc1cc(=O)c2c(O)cccc2o1", "> 100 µM"]
]}

Quick batch: TGI for everything below.
1. CC(C)c1ccccc1S(=O)c1ccccc1C(C)(C)O (stereo not given)
2. CC1(C)c2ccccc2C(=O)C12CCC(=O)CC2
3. Cc1ccc2nc(-c3ccc(N)c(I)c3)sc2c1

["> 100 µM", "> 100 µM", "> 100 µM"]

Quick batch: TGI for everything below.
1. CC(=O)c1c(CBr)n([O-])c2ccccc2[n+]1=O
2. C=CCNC1=C2C[C@@H](C)C[C@@H](OC)[C@@H](OC(=O)CCCN)[C@H](C)/C=C(\C)[C@@H](OC(N)=O)[C@H](OC)/C=C\C=C(/C)C(=O)NC(=CC1=O)C2=O

25.8 µM
35.3 µM

Quick batch: TGI for everything below.
1. O=C(CN(C1CCCCC1)C1CCCCC1)Nc1ccc(S(=O)(=O)c2ccc(NC(=O)CN(C3CCCCC3)C3CCCCC3)cc2)cc1
2. O=C(C[n+]1ccccc1)NNC(=O)/C(=C/c1ccc2c(c1)OCO2)NC(=O)c1ccccc1

["2.35 µM", "> 100 µM"]

----------
Test system: SW-620 colon
Assay: NCI tumour cell line growth inhibition, 48 h
Measured endpoint: TGI

{"columns": ["Compound", "TGI"],
 "data": [
  ["Nc1c(C(=O)N/N=C/c2ccc(-c3ccc(Cl)cc3)o2)cnn1-c1ccnc2c(C(F)(F)F)cccc12", "> 100 µM"],
  ["CC(C)=CCS(=O)c1ccccc1NC1=CC(=O)CC(C)(C)C1 (stereo unspecified)", "> 100 µM"],
  ["C=C1C(=O)O[C@H]2[C@H]1[C@@H](OC(=O)C=C(C)C)CC1=C[C@@H](C[C@@]3(C)O[C@@H]23)OC1=O", "2.77 µM"],
  ["O=C(CCC/C(CC(=O)c1ccc(Br)cc1)=N\\O)Nc1ccccc1", "> 100 µM"],
  ["CSC1=C(SC)SC(=C2SC3=C(SC(=C4SCCS4)S3)S2)S1", "> 100 µM"]
]}

Quick batch: TGI for everything below.
1. Cc1cccc2c1Oc1cc(Cl)ccc1C2NC(=O)CCN1CCOCC1 (stereo unspecified)
2. COC(=O)C1OC(Oc2cc(O)c3c(=O)cc(-c4ccc(O)cc4)oc3c2)C(O)C(O)C1O (stereo unspecified)

1: > 100 µM; 2: > 100 µM
